Reference source: PubChem BioAssay (Tox21)

Tested on: Glucocorticoid receptor (Homo sapiens)
Assay: qHTS assay to identify small molecule antagonists of the glucocorticoid receptor (GR) signaling pathway (AID 720692)
Run parameters: GR-bla HeLa, beta-lactamase FRET ratio, dexamethasone-stimulated, 18 h; series mostly up to 58.5 µM
Records with an inconclusive call do not appear. Activity calls are given as the source filed them. Calls come from the whole dose curve; as a rule, active = well fitted inhibition curve with a large enough effect in the signal ratio in the repeat runs (not every such curve was filed as active); inconclusive = weak or mixed curves, or effect the other way; inactive = no such curve, though single readings can be large or run the other way; the % refers to the signal ratio.
Select the correct class. Options are active, inactive and nothing else.

Please let me know the test result on file for CCOP(=S)(OCC)Oc1nc(Cl)c(Cl)cc1Cl .
inactive

Just curious, what result did Oc1ccc(Cl)c(Cl)c1Cl get here?
inactive

Tell me the recorded outcome of this test for OC(c1ccc(Cl)cc1)(c1ccc(Cl)cc1)c1cccnc1 .
active

Recorded test call requested for c1ccoc1
inactive

Hello, I am checking results. What call was entered for CC(c1ccc(O)cc1)(c1ccc(O)cc1)c1ccc(O)cc1 ?
active

Outcome logged for O=C(C(Cl)(Cl)Cl)C(Cl)(Cl)Cl in this assay:
inactive

What was the test verdict on CCCCCCCCCC(=O)O[C@H]1CC[C@H]2[C@@H]3CCC4=CC(=O)CC[C@@H]4[C@H]3CC[C@]12C ?
active

Identify the outcome logged in this assay for the compound shown: COC(=O)C(Cl)C(=O)OC
inactive

Can you look up the reported call for Cn1sc(Cl)cc1=O for me?
inactive

I'd appreciate the recorded outcome for COP(=S)(OC)Oc1cc(Cl)c(I)cc1Cl from this test.
active

Identify the outcome logged in this assay for the compound shown: O=C(N[C@H](c1ccccc1)[C@@H]1CN2CCC1CC2)c1c(Cl)ccc(C(F)(F)F)c1Cl
inactive

Assay outcome for COc1nn(C(=O)NS(=O)(=O)c2ccccc2OC(F)(F)F)c(=O)n1C : what was it?
inactive

Any idea what this test logged for O=C(O)COc1ccc(Cl)cc1 ?
inactive

Record lookup: outcome of this test for CC(=O)NC1CCSC1=O (stereo not drawn) ?
inactive

Per the assay record, what outcome was assigned to [O-][Cl+]O ?
inactive

Query: recorded result category for O=[Se]=O in this test
inactive

Hi team, can someone confirm the assay call for CNC(C)Cc1ccccc1OC (stereo not drawn) ?
inactive

// param item: O=C1c2ccccc2C(=O)C1C(=O)C(c1ccccc1)c1ccccc1 ; yields the recorded call
active

Status in this test for COc1c(C(C)(C)C)cc([N+](=O)[O-])c(C)c1[N+](=O)[O-] ?
inactive

Answer briefly: the call reported for O=[N+]([O-])c1ccccc1CCl in this assay.
inactive

Tell me the recorded outcome of this test for CCCN(CC1CC1)c1c([N+](=O)[O-])cc(C(F)(F)F)cc1[N+](=O)[O-] .
inactive

Hi, sorry to bother you, what did the test record for ClP(Cl)(Cl)(Cl)Cl ?
inactive

State the result this test recorded for CCCCCC[N+](=O)[O-] .
inactive

What is the recorded call for this compound in the test? CCCC(=O)Cl
inactive

Hi team, can someone confirm the assay call for C=CCC1([C@H](C)CCC)C(=O)NC(=O)NC1=O ?
inactive

Recorded test outcome, item c1ccc(C2CC2)c(OCC2=NCCN2)c1
inactive

Which outcome was entered for the compound COC(N)=O in this test?
inactive

Would you mind telling me which call this test gave CCOc1nc(F)cc2nc(S(=O)(=O)Nc3c(Cl)cccc3Cl)nn12 ?
inactive

###

Tested on: Cytochrome P450 1A2 (Homo sapiens) (UniProt P05177)
Sequence (P05177 whole entry, looked up): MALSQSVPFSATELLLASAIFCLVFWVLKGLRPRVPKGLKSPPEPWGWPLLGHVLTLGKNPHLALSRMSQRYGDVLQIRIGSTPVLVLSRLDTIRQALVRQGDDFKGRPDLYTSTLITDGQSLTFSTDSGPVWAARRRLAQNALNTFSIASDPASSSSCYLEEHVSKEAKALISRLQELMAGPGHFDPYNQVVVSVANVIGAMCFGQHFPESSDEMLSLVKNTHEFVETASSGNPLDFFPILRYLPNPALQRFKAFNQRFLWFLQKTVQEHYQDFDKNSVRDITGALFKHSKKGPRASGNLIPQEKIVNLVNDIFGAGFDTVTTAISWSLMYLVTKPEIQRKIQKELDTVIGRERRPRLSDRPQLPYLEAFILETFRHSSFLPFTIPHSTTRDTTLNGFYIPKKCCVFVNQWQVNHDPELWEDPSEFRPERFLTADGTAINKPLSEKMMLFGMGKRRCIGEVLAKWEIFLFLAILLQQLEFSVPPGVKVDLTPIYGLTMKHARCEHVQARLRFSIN
Assay: Cytochrome P450 Family 1 Subfamily A Member 2 (CYP1A2) small molecule antagonists: luciferase reporter qHTS assay (AID 1671199); note: nearly all actives have a fitted effect of over 50% in size
Run parameters: P450-Glo CYP1A2 enzyme, luciferin luminescence, 1 h; series mostly up to 115 µM
Results filed as inconclusive are left out. The source made the active and inactive calls. The call rests on the fitted dose curve; in most records, active means well fitted inhibition curve with a large enough effect in the repeat runs; inconclusive means weak or mixed curves; inactive means no such curve, though single readings can be large or run the other way.
Outcomes you can answer with include only these: active, inactive

Hi, sorry to bother you, what did the test record for CC1(C)[C@H](C=C(Cl)Cl)[C@@H]1C(=O)O[C@@H](C#N)c1cccc(Oc2ccccc2)c1 ?
inactive

Can you look up the reported call for S=C=NCc1ccccc1 for me?
active

Could you check what this test reported for CC(=O)NC1CCSC1=O (centres undefined) ?
inactive

Per the records of this test, what outcome belongs to OC(c1ccc(Cl)cc1)(c1ccc(Cl)cc1)c1cccnc1 ?
active

GET /call?item= CC1CC(CC2CCC(N)C(C)C2)CCC1N (centres undefined) returns the recorded outcome of this test.
active

Field: outcome | Entry: Cc1cc(=O)[nH]o1
inactive

Please share the test call associated with C=CC(=O)OC(C)(C)C .
active

Tell me the recorded outcome of this test for CCCN(CCCl)c1c([N+](=O)[O-])cc(C(F)(F)F)cc1[N+](=O)[O-] .
active

Please indicate how the test categorized Nc1ccc([N+](=O)[O-])cc1[N+](=O)[O-] .
active

Hello, I am checking results. What call was entered for CNC(C)Cc1ccccc1OC (centres undefined) ?
inactive

In this assay, the call recorded for CCOP(=S)(OCC)SCn1nnc2ccccc2c1=O was what?
active

Dear all, I need the recorded test outcome for CC(C)(C)c1cc([N+](=O)[O-])cc([N+](=O)[O-])c1O , thank you.
active

Tell me the recorded outcome of this test for CC1(C)CCC(Cc2ccc(Cl)cc2)C1(O)Cn1cncn1 (centres undefined) .
active

Give the logged outcome of this assay for the following compound: [O-][Cl+]O
inactive

Recorded call for CC[C@H]1C[C@H]2[C@@H]3CCC4=CC(=O)CC[C@@H]4[C@H]3CC[C@]2(C)[C@H]1O ?
inactive

Assay result, entry CCCCCCCCCCOC(=O)c1ccccc1C(=O)OCCCCCCCCCC — outcome?
inactive

// return assay outcome for CCOP(O)OCC
inactive

Outcome? C=COC(C)=O
active

What did this assay record as the result for C=CC[C@]1(O)CC[C@H]2[C@@H]3CCC4=CC(=O)CCC4=C3C=C[C@@]21C ?
inactive

Status in this test for Cc1ccc(N)cc1C ?
active

I'd appreciate the recorded outcome for CCC(Br)(CC)C(=O)NC(N)=O from this test.
inactive

GET /call?item= CCC(Cl)CCl (centres undefined) returns the recorded outcome of this test.
inactive

# lookup: test call for O=S1OC[C@@H]2[C@H](CO1)[C@]1(Cl)C(Cl)=C(Cl)[C@@]2(Cl)C1(Cl)Cl (some centres undefined)
active

Tell me the assay call for O=C(Nc1ccccc1)Nc1ccnc(Cl)c1 please.
active

Please state the recorded outcome for this compound: CCCCCCC#N
active

Could you kindly confirm the outcome this assay logged for COC(=O)C(Br)CBr (centres undefined) ?
active

# fetch the recorded call for CCc1ccc(C(=O)NN(C(=O)c2cc(C)cc(C)c2)C(C)(C)C)cc1 here
inactive

What did this assay record as the result for c1ccoc1 ?
inactive

I would be grateful if you could indicate the recorded call for CNP(=O)(OC)Oc1ccc(C(C)(C)C)cc1Cl (centres undefined) .
active

###

Assay: qHTS assay for identifying genotoxic compounds that show differential cytotoxicity against isogenic chicken DT40 cell lines with known DNA damage response pathways - wild type cell line (AID 743012); note: nearly all actives have a fitted effect of over 60% in size
Run parameters: DT40 wild type chicken cells viability, CellTiter-Glo, 40 h; series mostly up to 68.4 µM
Records with an inconclusive call do not appear. Calls of active or inactive are those of the source. Calls come from the whole dose curve; as a rule, active = well fitted cell-killing curve with a large enough effect in the repeat runs; inconclusive = weak or mixed curves, or effect the other way; inactive = no such curve, though single readings can be large or run the other way.
Returns: one label drawn from active, inactive

What was the test verdict on O=S1OC[C@@H]2[C@H](CO1)[C@]1(Cl)C(Cl)=C(Cl)[C@@]2(Cl)C1(Cl)Cl (stereo not given in full) ?
active

How did this test come out for CCCCCCCCCC(=O)O[C@H]1CC[C@H]2[C@@H]3CCC4=CC(=O)CC[C@@H]4[C@H]3CC[C@]12C ?
inactive

GET /call?item= COc1c(C(C)(C)C)cc([N+](=O)[O-])c(C)c1[N+](=O)[O-] returns the recorded outcome of this test.
inactive

Test call for this compound, please: CCCCc1c(C)nc(NCC)nc1OS(=O)(=O)N(C)C
active

Can you look up the reported call for CC(C)(OO)c1ccccc1 for me?
active

###

Assay: A CellTox Green Cytotoxicity Assay to monitor cytotoxicity in HepG2 cells - 32 hour (AID 1224883); note: nearly all actives have a fitted effect of over 50% in size
Run parameters: CellTox Green fluorescence; series mostly up to 76.8 µM
Inconclusive results are not listed. Active and inactive are the calls of the source. Calls follow the shape of the dose curve; as a rule, active = well fitted activation curve with a large enough effect in the repeat runs; inconclusive = weak or mixed curves; inactive = flat fitted curve, though single readings scatter.
Lab note: assign the record to one of active, inactive

Call for entry CCOP(O)OCC :
inactive

// outcome(item) with item = Cl/C=C\Cl
inactive

Short answer needed: outcome of this test for ClCCCCBr ?
inactive

Which outcome was entered for the compound c1ccc(C2CC2)c(OCC2=NCCN2)c1 in this test?
inactive

Recorded test call requested for O=S1(=O)OC(c2cc(Br)c(O)c(Br)c2)(c2cc(Br)c(O)c(Br)c2)c2ccccc21
inactive

Assay outcome for O=C=Nc1ccc(Cl)cc1 : what was it?
inactive

Each compound tested received a call. Report the one for C[C@]12CC[C@H]3[C@@H](CCC4=CC(=O)CC[C@@H]43)[C@@H]1CC[C@@H]2OC(=O)CCC1CCCCC1 .
inactive

Status in this test for NCCCNCCCN ?
inactive

Test call, this compound: CCCCN=C=O
inactive

Assay outcome for II : what was it?
active

Could you kindly confirm the outcome this assay logged for O=Cc1ccc(Cl)cc1Cl ?
inactive

Test call, this compound: Clc1cccc2ccccc12
inactive

// outcome(item) with item = N#Cc1cc(I)c(O)c(I)c1
inactive

So what was the verdict on CCOC(=O)C(Cl)C(C)=O (stereo unspecified) in this test?
active

Would you mind telling me which call this test gave CCOP(=S)(OCC)Oc1nc(Cl)c(Cl)cc1Cl ?
inactive

Record request — test call for Cc1c(F)c(F)c(COC(=O)C2C(/C=C(\Cl)C(F)(F)F)C2(C)C)c(F)c1F (stereo unspecified)
inactive

Please let me know the test result on file for O=C(O)COc1ccc(Cl)cc1 .
inactive

Assay result, entry CCCCC(CC)COP(=O)(Oc1ccccc1)Oc1ccccc1 (stereo unspecified) — outcome?
inactive

Identify the outcome logged in this assay for the compound shown: CC1(C)[C@H](C=C(Cl)Cl)[C@@H]1C(=O)O[C@@H](C#N)c1cccc(Oc2ccccc2)c1
inactive

Record lookup: outcome of this test for [CH3][Sn]([CH3])([Cl])[Cl] ?
inactive

Dear all, I need the recorded test outcome for Brc1ccc(Oc2ccccc2)cc1 , thank you.
inactive

Answer briefly: the call reported for CC(=O)C(C)(C)C in this assay.
inactive

How did this test come out for CCCCC(O)(Cn1cncn1)c1ccc(Cl)cc1Cl (stereo unspecified) ?
active

Test call, this compound: Nc1ccc([N+](=O)[O-])cc1[N+](=O)[O-]
inactive

Recorded test call requested for COc1ccc(-c2ccccc2)cc1NNC(=O)OC(C)C
inactive

Hi team, can someone confirm the assay call for O=[N+]([O-])c1ccccc1CCl ?
inactive

Please let me know the test result on file for Nc1nc(=S)[nH][nH]1 .
inactive

What outcome does the record of this test show for CCCCOC(=O)c1ccccc1C(=O)OCc1ccccc1 ?
inactive

Hi, sorry to bother you, what did the test record for O=C(CBr)Nc1ccc(Cl)cc1C(=O)c1ccccc1F ?
inactive

Identify the outcome logged in this assay for the compound shown: O=C(CCl)c1ccc(Cl)cc1Cl
active

Record lookup: outcome of this test for CC(=O)NC1CCSC1=O (stereo unspecified) ?
inactive

Hi, do you know how CCO[C@H]1O[C@@H]2OC3(C)CC[C@H]4[C@H](C)CC[C@@H]([C@H]1C)[C@@]24OO3 came out in this test?
inactive

I'd appreciate the recorded outcome for CC/C(=N\OC/C=C/Cl)C1=C(O)CC(C2CCOCC2)CC1=O (stereo unspecified) from this test.
inactive

Hey, what did the test say about COP(=S)(OC)Oc1cc(Cl)c(I)cc1Cl ?
inactive

Each compound tested received a call. Report the one for CCn1cc[n+](C)c1 .
inactive

Outcome logged for CCCN(CC1CC1)c1c([N+](=O)[O-])cc(C(F)(F)F)cc1[N+](=O)[O-] in this assay:
inactive

Recorded call for O=C(O)c1ccccc1C(=O)Nc1cccc2ccccc12 ?
inactive

// outcome(item) with item = O=C(NCc1cccnc1)Nc1ccc([N+](=O)[O-])cc1
inactive

Tell me the recorded outcome of this test for Nc1nc(N)nc(N)n1 .
inactive

How was Nc1ccc(N=Nc2ccc(-c3ccc(N=Nc4c(S(=O)(=O)O)cc5cc(S(=O)(=O)O)c(N=Nc6ccccc6)c(O)c5c4N)cc3)cc2)c(N)c1 classified in this test?
inactive

I would be grateful if you could indicate the recorded call for CCOP(=O)(OCC)O/C(=C/Cl)c1ccc(Cl)cc1Cl .
inactive

Which outcome was assigned to CC(c1ccc(O)cc1)(c1ccc(O)cc1)c1ccc(O)cc1 in this test?
inactive

Recorded call for CC(=O)CCC(C)=O ?
inactive

Identify the outcome logged in this assay for the compound shown: OCCCBr
inactive

GET /call?item= CC1C(=O)C[C@]2(C(C)C)C[C@H]12 (stereo partly specified) returns the recorded outcome of this test.
inactive

# outcome recorded in this test, key = CCOP(=S)(Oc1ccc([N+](=O)[O-])cc1)c1ccccc1 (stereo unspecified)
inactive

Field: outcome | Entry: CCC(COC(=O)c1cc(OC)c(OC)c(OC)c1)(c1ccccc1)N(C)C (stereo unspecified)
inactive

Status in this test for O=[N+]([O-])c1ccc(F)c([N+](=O)[O-])c1 ?
inactive

Fill in: this test's call for CCOP(=S)(OCC)SCSCC is ___
inactive

Would you mind telling me which call this test gave NNC(=O)c1cccnc1 ?
inactive

Short answer needed: outcome of this test for N#CCc1ccccc1 ?
inactive

Kindly provide the recorded test outcome for the following compound: O=S(=O)(O)C(F)(F)C(F)(F)C(F)(F)C(F)(F)F
inactive

Hi, sorry to bother you, what did the test record for CC(C)(C)C(O)C(Oc1ccc(Cl)cc1)n1cncn1 (stereo unspecified) ?
active

Short answer needed: outcome of this test for CCCN(CCCl)c1c([N+](=O)[O-])cc(C(F)(F)F)cc1[N+](=O)[O-] ?
inactive

Tell me the recorded outcome of this test for O=C(C(Cl)(Cl)Cl)C(Cl)(Cl)Cl .
inactive

In this assay, the call recorded for BrCC(Br)C1CCC(Br)C(Br)C1 (stereo unspecified) was what?
inactive
